The measured values listed here are drawn from patent US20250214969A1.

Reported values of IC50 for individual entries
- MEASURED ON: truncated His-MBP-Tev-KLHDC2 (residues 1-363) (Homo sapiens, UniProt Q9Y2U9)
- Construct: truncated His -MBP-Tev-KLHDC2 (residues 1-363) purified from E. coli; made in house; host or cells: E. coli
- Sequence (Q9Y2U9 1-363): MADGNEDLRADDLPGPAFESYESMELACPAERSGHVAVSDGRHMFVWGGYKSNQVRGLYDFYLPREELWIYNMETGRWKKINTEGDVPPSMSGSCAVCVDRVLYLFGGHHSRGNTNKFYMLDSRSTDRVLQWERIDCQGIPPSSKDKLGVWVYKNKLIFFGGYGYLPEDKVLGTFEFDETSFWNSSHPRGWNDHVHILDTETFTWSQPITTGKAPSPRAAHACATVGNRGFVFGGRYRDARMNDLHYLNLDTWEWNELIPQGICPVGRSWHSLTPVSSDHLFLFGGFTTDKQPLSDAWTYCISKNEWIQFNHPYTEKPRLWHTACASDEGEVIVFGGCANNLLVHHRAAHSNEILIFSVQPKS
- TEST NAME: KLHDC2 FP competition binding assay
- CONDITION INFO: 15 nM KLHDC2 (residues 1-363), 10 nM fluorescein-labeled diglycine peptide probe, read-out: KLHDC2 binding Human FP: average external IC50

Enter measured IC50, system truncated His-MBP-Tev-KLHDC2 (residues 1-363) (Homo sapiens, UniProt Q9Y2U9), for the compound shown: O=C(O)Cn1cc(NC(=O)c2nccc(-c3cccnc3)n2)ccc1=O
0.5 to 5 µM

Enter measured IC50, system truncated His-MBP-Tev-KLHDC2 (residues 1-363) (Homo sapiens, UniProt Q9Y2U9), for the compound shown: O=C(O)Cn1cc(NC(=O)CCNC(=O)c2ccc3ccccc3c2)ccc1=O
> 5 µM

Enter measured IC50, system truncated His-MBP-Tev-KLHDC2 (residues 1-363) (Homo sapiens, UniProt Q9Y2U9), for the compound shown: O=C(O)Cn1cc(-c2cc(F)c(O)c(F)c2)ccc1=O
> 5 µM

Enter measured IC50, system truncated His-MBP-Tev-KLHDC2 (residues 1-363) (Homo sapiens, UniProt Q9Y2U9), for the compound shown: O=C(O)Cn1cc(NC(=O)c2cccc(-c3ccccn3)c2)ccc1=O
> 5 µM

Enter measured IC50, system truncated His-MBP-Tev-KLHDC2 (residues 1-363) (Homo sapiens, UniProt Q9Y2U9), for the compound shown: CCOC(=O)Cn1cc(NC(=O)c2cccc(-c3cncc(CCCCCCN)c3)c2)ccc1=O
> 5 µM

---

Reported values of pIC50 for individual entries
- MEASURED ON: truncated His-MBP-Tev-KLHDC2 (residues 1-363) (Homo sapiens, UniProt Q9Y2U9)
- Construct: truncated His -MBP-Tev-KLHDC2 (residues 1-363) purified from E. coli; made in house; host or cells: E. coli
- TEST NAME: KLHDC2 FP competition binding assay
- CONDITION INFO: 15 nM KLHDC2 (residues 1-363), 10 nM fluorescein-labeled diglycine peptide probe, read-out: KLHDC2 binding Human FP: average external IC50
pIC50: −log10 of the molar value.

Some solved entries appear below for comparison.
# COMPOUND, pIC50
data = [
    ("O=C(O)Cn1cc(NC(=O)c2ccc(-c3ccccc3)cc2F)ccc1=O [I-161]", "5.30 to 6.30"),
    ("Cc1cccc(-c2ccc(=O)n(CC(=O)O)c2)c1 [I-422]", "< 5.30"),
    ("O=C(O)Cn1cc(NC(=O)C2CCCc3cc(O)ccc32)ccc1=O (stereo not shown) [I-245]", "< 5.30"),
    ("COc1ccc(-c2cccc(C)c2)cc1CC(=O)O [I-353]", "< 5.30"),
    ("O=C(O)Cn1cc(NC(=O)[C@H]2CC[C@H](NC(=O)C3CCCC3)CC2)ccc1=O [I-183]", "< 5.30"),
]

Read off the recorded pIC50 for N#Cc1cc(=O)n(CC(=O)O)cc1NC(=O)c1cccc(-c2cccnc2)c1 [I-25]
5.30 to 6.30

Read off the recorded pIC50 for CCOC(=O)Cn1cc(NC(=O)c2ccc(CCCCCCN)c(-c3cccnc3)c2)ccc1=O [I-147]
< 5.30

Read off the recorded pIC50 for CCOC(=O)Cn1cc(NC(=O)c2cccc(-c3cccnc3)c2)ccc1=O [I-98]
< 5.30

Read off the recorded pIC50 for O=C(O)Cn1cc(NC(=O)COc2cccc3ncccc23)ccc1=O [I-263]
< 5.30

Read off the recorded pIC50 for O=C(O)Cn1cc(NC(=O)c2ccc(-c3cccnc3)s2)ccc1=O [I-205]
< 5.30

---

Reported values of IC50 for individual entries
- MEASURED ON: truncated His-MBP-Tev-KLHDC2 (residues 1-363) (Homo sapiens)
- Construct: truncated His -MBP-Tev-KLHDC2 (residues 1-363) purified from E. coli; made in house; host or cells: E. coli
- TEST NAME: KLHDC2 FP competition binding assay
- CONDITION INFO: 15 nM KLHDC2 (residues 1-363), 10 nM fluorescein-labeled diglycine peptide probe, read-out: KLHDC2 binding Human FP: average external IC50

Read off the recorded IC50 for CC(C)Cc1cccc(-c2ccc(=O)n(CC(=O)O)c2)c1
> 5 µM

Read off the recorded IC50 for COc1cccc2c(N3CCC[C@H](C(=O)Nc4ccc(=O)n(CC(=O)O)c4)C3)cncc12
< 0.05 µM

Read off the recorded IC50 for O=C(O)Cn1cc(NC(=O)c2occc2CN2C(=O)Cc3ccccc32)ccc1=O
> 5 µM

---

- MEASURED ON: truncated His-MBP-Tev-KLHDC2 (residues 1-363) (Homo sapiens)
- Construct: truncated His -MBP-Tev-KLHDC2 (residues 1-363) purified from E. coli; made in house; host or cells: E. coli
- Sequence (Q9Y2U9 1-363): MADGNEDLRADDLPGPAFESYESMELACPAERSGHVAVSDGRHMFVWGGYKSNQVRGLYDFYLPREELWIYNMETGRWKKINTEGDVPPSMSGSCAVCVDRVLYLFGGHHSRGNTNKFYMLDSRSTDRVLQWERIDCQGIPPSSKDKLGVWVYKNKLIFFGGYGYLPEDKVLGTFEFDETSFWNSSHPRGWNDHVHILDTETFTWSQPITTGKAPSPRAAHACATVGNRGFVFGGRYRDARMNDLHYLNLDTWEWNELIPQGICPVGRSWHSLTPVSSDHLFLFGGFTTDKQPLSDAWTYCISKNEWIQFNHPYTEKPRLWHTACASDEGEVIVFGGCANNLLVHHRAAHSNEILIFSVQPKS
- TEST NAME: KLHDC2 HTRF binding assay
- CONDITION INFO: 1 nM KLHDC2 (residues 1-363), fluorescein-labeled diglycine peptide probe
pIC50: −log10 of the molar value.
EXPERIMENTAL READOUT: pIC50

Some solved entries appear below for comparison.
# COMPOUND, pIC50
rows = [
    ("N#CCn1cc(NC(=O)c2cccc(-c3cccnc3)c2)ccc1=O", "< 5.30"),
    ("COc1ccc(/C=C/CC(=O)Nc2ccc(=O)n(CC(=O)O)c2)cc1", "< 5.30"),
    ("N#Cc1cccc(-c2ccc(=O)n(CC(=O)O)c2)c1", "< 5.30"),
    ("Cc1ccc(C)c(-c2cccn(CC(=O)O)c2=O)c1", "< 5.30"),
    ("O=C(O)Cn1cc(NC(=O)COc2cccnc2)ccc1=O", "< 5.30"),
]

Read off the recorded pIC50 for O=C(O)Cn1cc(NC(=O)c2occc2CN2C(=O)Cc3ccccc32)ccc1=O
5.30 to 6.30

Read off the recorded pIC50 for Cc1ccccc1-c1cccc(C(=O)Nc2ccc(=O)n(CC(=O)O)c2)c1
< 5.30

Read off the recorded pIC50 for COc1cc(F)cc(-c2ccc(=O)n(CC(=O)O)c2)c1
< 5.30

Read off the recorded pIC50 for O=C(O)C1CC(=O)N(C2CC2)C1 (centres unmarked)
< 5.30

Read off the recorded pIC50 for O=C(O)CCC(=O)NCc1nc2ccccc2s1
< 5.30

Read off the recorded pIC50 for NCCCCCCc1cc(C(=O)Nc2ccc(=O)n(CC(=O)O)c2)cc(-c2cccnc2)c1
5.30 to 6.30

---

- MEASURED ON: truncated His-MBP-Tev-KLHDC2 (residues 1-363) (Homo sapiens)
- Construct: truncated His -MBP-Tev-KLHDC2 (residues 1-363) purified from E. coli; made in house; host or cells: E. coli
- TEST NAME: KLHDC2 HTRF binding assay
- CONDITION INFO: 1 nM KLHDC2 (residues 1-363), fluorescein-labeled diglycine peptide probe
pIC50: −log10 of the molar value.
EXPERIMENTAL READOUT: pIC50

Some solved entries appear below for comparison.
# RECORD SMILES, pIC50
records = [
    ("O=C(O)Cn1cc(NC(=O)c2cccc(-c3cncnc3)c2)ccc1=O", "5.30 to 6.30"),
    ("CC(C)c1ccc(C(=O)Nc2ccc(=O)n(CC(=O)O)c2)cc1-c1cccnc1", "5.30 to 6.30"),
    ("O=C(O)Cn1cc(NC(=O)[C@H]2CCCN(c3cccnc3)C2)c(Cl)cc1=O", "6.30 to 7.30"),
]

Now for the molecule whose pIC50 we want.
Read off the recorded pIC50 for Cc1cccc(-c2ccc(O)c(CC(=O)O)c2)c1
< 5.30
